- TARGET: Heat shock protein HSP 90-alpha (Homo sapiens, UniProt P07900)
- TEST_NAME: Inhibition of human recombinant HSP90alpha expressed in Escherichia coli BL21 (DE3) incubated for 12 hrs by
METRIC: IC50

INSERT INTO assay_data (test_smiles, result) VALUES
  ('CCc1cc(C(N)=O)ccc1-n1nc(C(C)C)c2c(-n3cnc(-c4cnn(C)c4)c3)ccnc21', '34.7 nM');

###

- TEST_NAME: Tmax in mouse at 1 mg/kg, sc
- Format: ADME, organism-based
- MEASUREMENT_SETUP: in vivo
METRIC: Tmax (h)

INSERT INTO measurements (compound, result) VALUES
  ('COc1cc(/C=C2\CCCN3C(=O)C4C=NN(C)C4N=C23)cc(OC)c1OC (stereo unspecified)', 1.67);

###

- Tested on: NCI-H1975
- TEST_NAME: Antiproliferative activity against human NCI-H1975 cells assessed as reduction in cell growth incubated for 72 hrs by SRB assay
- Assay type: functional, cell-based
- MEASUREMENT_SETUP: NCI-H1975, 72 h
METRIC: IC50 (nM)

INSERT INTO assay_data (compound, result) VALUES
  ('CCOc1ccc(Oc2ccc(C3=NN(C4=NC(=O)CS4)C(c4cc(O)c(O)c(Br)c4Br)C3)cc2)cc1 (stereo unspecified)', 2640);

###

- TEST_NAME: Half life in mouse at 40 mg/kg, po
- Assay type: ADME, organism-based
- MEASUREMENT_SETUP: in vivo
METRIC: half-life (h)

INSERT INTO assay_data (test_smiles, result) VALUES
  ('O=C(Nc1ccc(OC(F)(F)Cl)cc1)c1cnc(N2CC[C@@H](O)C2)c(-c2ccn[nH]2)c1', 5.5);

###

- System: MCF7
- TEST_NAME: Antiproliferative activity against human MCF7 cells assessed as reduction in cell viability incubated for 48 hrs by MTT assay
- Type: functional, cell-based
- MEASUREMENT_SETUP: MCF7, 48 h
pIC50: −log10 of the molar value.
METRIC: pIC50

INSERT INTO assay_data (compound, metric, result) VALUES
  ('Cc1ccc(C2CC(c3ccc(F)cc3)=NN2C(=O)CN2C(=O)CCC2=O)cc1 (stereo unspecified)', 'pIC50', 6.11);

###

- TEST_NAME: Cmax in CD-1 mouse at 3 mg/kg, ip measured after 24 hrs by LC-MS/MS analysis
- Type: ADME, organism-based
- MEASUREMENT_SETUP: in vivo
METRIC: Cmax (ng/mL)

INSERT INTO assay_data (test_smiles, metric, result) VALUES
  ('Cc1ccc2oc(-c3c4c(N)n[nH]c(=O)c4nn3-c3ccc(NC(=O)/C=C/CN(C)C)cc3)c(C)c2c1', 'Cmax', 282);

###

- System: MDA-MB-231
- TEST_NAME: Antiproliferative activity against human MDA-MB-231 cells assessed as reduction in cell viability incubated for 48 hrs by MTT assay
- Format: functional, cell-based
- MEASUREMENT_SETUP: MDA-MB-231, 48 h
METRIC: IC50

INSERT INTO measurements (molecule, metric, result) VALUES
  ('Clc1ccccc1C(c1ccccc1)(c1ccc(CCC[P+](c2ccccc2)(c2ccccc2)c2ccccc2)cc1)n1cccn1 (stereo unspecified)', 'IC50', '1.31 µM');

###

- TARGET: Receptor-type tyrosine-protein kinase FLT3 (Homo sapiens, UniProt P36888, D835H)
- TEST_NAME: Inhibition of FLT3 D835H mutant (unknown origin)
METRIC: IC50 (nM)

INSERT INTO measurements (test_smiles, target, unit_name, result) VALUES
  ('CCN1CCN(c2ccc(Nc3ncc(F)c(-c4cnc5cnn(C(C)C)c5c4)n3)cc2OC)CC1', 'Receptor-type tyrosine-protein kinase FLT3 (Homo sapiens, UniProt P36888, D835H)', 'nM', 11);
